For each of the compounds below, state its Test C rating (% disease control).
- Tested on: Phytophthora infestans
- Type: in vivo
- TEST CONDITIONS: 50 ppm (asterisk); tomato late blight; 100 = 100% disease control, 0 = no control
Give just the numeric value; % need not be written.

Give recorded Test C rating (% disease control). CC1(c2ccc(Cl)cc2)CC(C(O)(Cn2cncn2)c2ccc(Cl)cc2)=NO1 (single isomer, unassigned) [Compound 212] 0

Respond only with Test C rating (% disease control) recorded for OC(Cn1cncn1)(C1=NOC(c2ccccc2F)C1)c1ccccc1 (mixture of isomers) 0

Tell us which Test C rating (% disease control) value is on record for OC(Cn1cncn1)(C1=NOC(c2c(F)cccc2F)C1)c1ccccc1 (mixture of isomers) 0

State its Test C rating (% disease control): OC(Cn1cncn1)(C1=NOC(c2ccc(Cl)cc2)C1)c1ccc(Cl)cc1 (single isomer, unassigned) [Compound 123] 0

Answer with reported Test C rating (% disease control) of CC(O)(Cn1cncn1)C1=NOC(c2ccc(Cl)cc2)C1 (single isomer, unassigned) [Compound 36] 0

For the compound CC1(c2ccc(Cl)cc2)CC(C(O)(Cn2cncn2)c2ccccc2)=NO1 (single isomer, unassigned) [Compound 211] , give its reported Test C rating (% disease control). 0

Note down Test C rating (% disease control) recorded for OC(Cn1cncn1)(C1=NOC(Cc2ccccc2)C1)c1ccc(Cl)cc1 (single isomer, unassigned) 0

###

- Test system: Zymoseptoria tritici
- TEST DETAILS: Test E: wheat leaf blotch, preventive spray on wheat seedlings
- TEST CONDITIONS: 10 ppm; wheat leaf blotch; 100 = 100% disease control, 0 = no control
Provide the recorded Test E rating (% disease control) for the entries that follow.
State the answer as a number, implicitly in %.

State its Test E rating (% disease control) for this molecule: CC(C)(C)C(O)(Cn1cncn1)C1=NOC(COc2ccc(Cl)nc2)C1 (single isomer, unassigned) [Compound 97] 0

Output measured Test E rating (% disease control) for this item: CC1(C(O)(Cn2cncn2)C2=NOC(c3ccc(Cl)cc3)C2)CC1 (single isomer, unassigned) [Compound 127] 9

Please give measured Test E rating (% disease control) of the following entry: OC(Cn1cncn1)(C1=NOC(c2cccc(Oc3ccccc3)c2)C1)c1ccc(Cl)cc1 (single isomer, unassigned) [Compound 176] 2

Report measured Test E rating (% disease control); entry is CC(C)(C)C(O)(Cn1cncn1)C1=NOC(COc2ccc(Cl)cc2)C1 (centres unmarked) [Compound 174] 12

Retrieve Test E rating (% disease control) measured for CC(C)(C)C(O)(Cn1cncn1)C1=NOC(COc2ccc(F)cc2)C1 (single isomer, unassigned) [Compound 80] and print it. 1

Respond only with Test E rating (% disease control) recorded for CC(C)(C)CC1CC(C(O)(Cn2cncn2)C(C)(C)C)=NO1 (single isomer, unassigned) [Compound 78] 0

Identify measured Test E rating (% disease control) associated with OC(Cn1cncn1)(C1=NOC(Cc2ccc(-c3ccccc3)cc2)C1)c1ccc(Cl)cc1 (single isomer, unassigned) [Compound 205] 6

Give the reported Test E rating (% disease control) for this molecule. CC(C)(C)C(O)(Cn1cncn1)C1=NOC(CSc2ccccc2)C1 (single isomer, unassigned) [Compound 74] 13

Tell me Test E rating (% disease control) reported for CC(C)(C)C(O)(Cn1cncn1)C1=NOC(COc2ccc(-n3cccn3)cc2)C1 (single isomer, unassigned) [Compound 29] 0

Supply reported Test E rating (% disease control) belonging to this molecule: CC(C)(C)C(O)(Cn1cncn1)C1=NOC(CCOc2ccc(Cl)cc2)C1 (single isomer, unassigned) [Compound 208] 74

Note down Test E rating (% disease control) recorded for OC(Cn1cncn1)(C1=NOC(c2ccc(Cl)cc2)C1)c1ccccc1Cl (single isomer, unassigned) [Compound 151] 76

Give Test E rating (% disease control) for the following molecule: OC(Cn1cncn1)(C1=NOC(COC2CCCCC2)C1)c1ccc(Cl)cc1 (single isomer, unassigned) [Compound 89] 0

Look up and state reported Test E rating (% disease control) for OC(Cn1cncn1)(C1=NOC(c2ccc(C(F)(F)F)cc2)C1)c1ccc(Cl)cc1 (single isomer, unassigned) [Compound 147] 17

Report Test E rating (% disease control) for CC1(C(O)(Cn2cncn2)C2=NOC(c3ccc(Cl)cc3)C2)CC1 (single isomer, unassigned) [Compound 126] 89

###

- System: Zymoseptoria tritici
- TEST DETAILS: Test E: wheat leaf blotch, preventive spray on wheat seedlings
- TEST CONDITIONS: 10 ppm; wheat leaf blotch; 100 = 100% disease control, 0 = no control
Please assign not satisfied whenever Test E rating (% disease control) is at or above 5%, and satisfied whenever it is below.

Test E rating (% disease control) strictly < 5% for this molecule? OC(Cn1cncn1)(C1=NOC(COc2ccc(Cl)nc2)C1)c1ccc(Cl)cc1 (single isomer, unassigned) [Compound 102] satisfied

Bench note: check whether OC(Cn1cncn1)(C1=NOC(Cc2ccccc2)C1)c1ccc(Cl)cc1 (single isomer, unassigned) [Compound 137] shows Test E rating (% disease control) below 5% not satisfied

Does this molecule meet the criterion Test E rating (% disease control) < 5%? OC(Cn1cncn1)(C1=NOC(COc2ccc(OCc3ccccc3)cc2)C1)c1ccc(Cl)cc1 (single isomer, unassigned) [Compound 69] not satisfied

Given OC(Cn1cncn1)(C1=NOC(c2ccc(Cl)cc2)C1)c1ccc(Oc2ccccc2)cc1 (mixture of isomers) [Compound 152] , is recorded Test E rating (% disease control) strictly lower than 5%? not satisfied

Is the reported Test E rating (% disease control) for OC(Cn1cncn1)(C1=NOC(Cc2ccc(Cl)cc2)C1)c1ccc(Cl)cc1 (single isomer, unassigned) [Compound 201] strictly below 5%? satisfied

###

Consider the following compounds; for each one, report its Test E disease control rating.
- Tested on: Zymoseptoria tritici
- TEST DETAILS: Test E: wheat leaf blotch, preventive spray on wheat seedlings
- TEST CONDITIONS: 10 ppm test solution; 100 = 100% disease control, 0 = no control relative to controls
Write it as a number; the unit % goes unstated.

Entry CCC(C)(C)C(O)(Cn1cncn1)C1=NOC(COc2ccc(F)cc2)C1 (single isomer, unassigned) [Compound 249] needs its Test E disease control rating filled in; supply it. 0

Tell me its Test E disease control rating given CC(C)(C)C(O)(Cn1cncn1)C1=NOC(COc2cccc(Cl)c2)C1 (single isomer, unassigned) [Compound 231] as the entry. 6

Answer with the recorded Test E disease control rating for the compound listed here: COc1ccc(OCC2CC(C(O)(Cn3cncn3)C(C)(C)C)=NO2)cc1 (single isomer, unassigned) [Compound 260] 1

Entry CC1(COc2ccc(Cl)cc2)CC(C(O)(Cn2cncn2)c2ccc(Cl)cc2)=NO1 (single isomer, unassigned) [Compound 218] needs its Test E disease control rating filled in; supply it. 0

Please supply the value of reported Test E disease control rating for the item CC(C)(C)C(O)(Cn1cncn1)C1=NOC(COCc2ccc(Cl)cc2)C1 (single isomer, unassigned) [Compound 264] 0

Return value of Test E disease control rating for input OC(COc1ccc(Cl)cc1)(Cn1cncn1)C1=NOC(c2ccc(Cl)cc2)C1 (stereo not shown) [Compound 272] , no commentary. 0

State its Test E disease control rating for this compound: OC(COc1ccc(Cl)cc1)(Cn1cncn1)C1=NOC(COc2ccc(Cl)cc2)C1 (stereo not shown) [Compound 271] 2

###

- Test system: Puccinia recondita f sp. tritici
- TEST DETAILS: Test F: wheat leaf rust, preventive spray on wheat seedlings
- TEST CONDITIONS: 10 ppm test solution; 100 = 100% disease control, 0 = no control relative to controls
Consider the following compounds; for each one, report its Test F disease control rating.
State the answer as a number, implicitly in %.

Tell me Test F disease control rating reported for CC1(COc2ccc(Cl)cc2)CC(C(O)(Cn2cncn2)c2ccc(Cl)cc2)=NO1 (single isomer, unassigned) [Compound 219] 95

In one line, give reported Test F disease control rating of the entry OC(COc1ccc(Cl)cc1)(Cn1cncn1)C1=NOC(c2ccc(Cl)cc2)C1 (stereo not drawn) [Compound 272] . 100

Quick one: give measured Test F disease control rating for CC1(C(O)(Cn2cncn2)C2=NOC(COc3ccc(C(F)(F)F)cc3)C2)CC1 (single isomer, unassigned) [Compound 236] 100

Check the records and state Test F disease control rating for CC(C)(C)C(O)(Cn1cncn1)C1=NOC(COc2cccc(Cl)c2)C1 (single isomer, unassigned) [Compound 230] 100

Consider the compound CC(C)CC(O)(Cn1cncn1)C1=NOC(COc2ccc(Cl)cc2)C1 (single isomer, unassigned) [Compound 267] . State its measured Test F disease control rating. 100

In one line, give reported Test F disease control rating of the entry CCC(C)(C)C(O)(Cn1cncn1)C1=NOC(COc2ccc(C(F)(F)F)cc2)C1 (single isomer, unassigned) [Compound 262] . 99

###

Could you please report measured Test E rating (% disease control) for the items listed next?
- Tested on: Zymoseptoria tritici
- TEST DETAILS: Test E: wheat leaf blotch, preventive spray on wheat seedlings
- TEST CONDITIONS: 50 ppm (asterisk); wheat leaf blotch; 100 = 100% disease control, 0 = no control
Please reply with the bare figure in % and do not write the unit itself.

Quick one: give measured Test E rating (% disease control) for CC(C)(C)C1CC(C(O)(Cn2cncn2)c2ccccc2)=NO1 (single isomer, unassigned) [Compound 124] 6

Complete the entry with Test E rating (% disease control) for OC(Cn1cncn1)(C1=NOC(c2ccc(F)cc2)C1)c1ccc(F)cc1 (single isomer, unassigned) [Compound 122] 77

Indicate the recorded Test E rating (% disease control) value for this molecule: OC(Cn1cncn1)(C1=NOC(c2ccccc2)C1)c1ccccc1 (mixture of isomers) 0

Report Test E rating (% disease control) for CC(O)(Cn1cncn1)C1=NOC(c2ccc(Cl)cc2)C1 (single isomer, unassigned) [Compound 36] 0

FYI, the data here is from patent US20160242416A1.
